test system: Escherichia coli; experiment: Antibacterial activity against Escherichia coli after 24 hrs by tube dilution method; assay type: functional
Could you please report measured MIC for the items listed next?
Write the value in µg/mL as a bare number.

Record Cc1ccc(-n2nnc3sc4c(c3c2=O)CCCC4)cc1 , field MIC: 37.5

// recorded MIC for O=c1c2c3c(sc2nnn1-c1ccccc1)CCCC3 : 37.5

# MIC (compound: Cn1nnc2sc3c(c2c1=O)CCCC3 ) is 50

// field: MIC; key: O=c1c2c3c(sc2nnn1-c1ccc(Cl)cc1)CCCC3 ; value = 25

Per the records, this compound ( Cc1cccc(-n2nnc3sc4c(c3c2=O)CCCC4)c1 ) has MIC equal to 37.5

So for O=c1c2c3c(sc2nnn1-c1cccc(Cl)c1)CCCC3 , the logged MIC turned out to be 25

For this compound ( O=c1c2c3c(sc2nnn1-c1ccc(F)cc1)CCCC3 ), measured MIC is 12.5

Cc1ccccc1-n1nnc2sc3c(c2c1=O)CCCC3 yielded MIC of 37.5

The value of MIC measured for the compound O=c1c2c3c(sc2nnn1-c1ccc(F)c(Cl)c1)CCCC3 turned out to be 25

The compound identified as CCn1nnc2sc3c(c2c1=O)CCCC3 registered its MIC at 50

Noted for CC1(C)S[C@@H]2[C@H](NC(=O)[C@H](N)c3ccccc3)C(=O)N2[C@H]1C(=O)O [AMPICILLIN] : its MIC reads 4

Record summary for O=c1[nH]nnc2sc3c(c12)CCCC3 : reported MIC = 50

Recorded MIC (compound O=c1c2c3c(sc2nnn1-c1ccccc1Cl)CCCC3 ): 25

The measurements presented in this section are drawn from ChEMBL document CHEMBL1240435.
